System: HeLa Kyoto
Assay: solubility in G1/S (NP-40 vs SDS abundance) (log2 ratio); higher = more soluble
Details: cell cycle stage: G1/S
endpoint name: solubility in G1/S (log2)
Answers are plain numbers.

record sequence	solubility in G1/S (log2)
MAASLRLLGAASGLRYWSRRLRPAAGSFAAVCSRSVASKTPVGFIGLGNMGNPMAKNLMKHGYPLIIYDVFPDACKEFQDAGEQVVSSPADVAEKADRIITMLPTSINAIEAYSGANGILKKVKKGSLLIDSSTIDPAVSKELAKEVEKMGAVFMDAPVSGGVGAARSGNLTFMVGGVEDEFAAAQELLGCMGSNVVYCGAVGTGQAAKICNNMLLAISMIGTAEAMNLGIRLGLDPKLLAKILNMSSGRCWSSDTYNPVPGVMDGVPSANNYQGGFGTTLMAKDLGLAQDSATSTKSPILLGSLAHQIYRMMCAKGYSKKDFSSVFQFLREEETF [HIBADH]	0.469
MSEVKSRKKSGPKGAPAAEPGKRSEGGKTPVARSSGGGGWADPRTCLSLLSLGTCLGLAWFVFQQSEKFAKVENQYQLLKLETNEFQQLQSKISLISEKWQKSEAIMEQLKSFQIIAHLKRLQEEINEVKTWSNRITEKQDILNNSLTTLSQDITKVDQSTTSMAKDVGLKITSVKTDIRRISGLVTDVISLTDSVQELENKIEKVEKNTVKNIGDLLSSSIDRTATLRKTASENSQRINSVKKTLTELKSDFDKHTDRFLSLEGDRAKVLKTVTFANDLKPKVYNLKKDFSRLEPLVNDLTLRIGRLVTDLLQREKEIAFLSEKISNLTIVQAEIKDIKDEIAHISDMN [IKBIP]	0.751

Find the measured solubility in G1/S (log2) of MSYCRQEGKDRIIFVTKEDHETPSSAELVADDPNDPYEEHGLILPNGNINWNCPCLGGMASGPCGEQFKSAFSCFHYSTEEIKGSDCVDQFRAMQECMQKYPDLYPQEDEDEEEEREKKPAEQAEETAPIEATATKEEEGSS [CHCHD4] and report it.
-0.518

* * *

Tested on: HeLa Kyoto
Test: solubility change mitosis vs G1/S (difference of NP-40 vs SDS log2 ratios) (log2 ratio difference); higher = more soluble in mitosis
Tag: 1 (yes) if measured solubility change mitosis (log2) is not below -0.1, 0 (no) if it is.

Please review the entries below; each comes with its answer.
substance	class
MGNTLTCCVSPNASPKLGRRAGSAELYCASDIYEAVSGDAVAVAPAVVEPAELDFGEGEGHHLQHISDREMPEDLALESNPSDHPRASTIFLSKSQTDVREKRKSNHLNHVSPGQLTKKYSSCSTIFLDDSTVSQPNLRTTVKCVTLAIYYHIKNRDANRSLDIFDERSHPLTREKVPEEYFKHDPEHKFIYRFVRTLFSAAQLTAECAIVTLVYLERLLTYAEIDICPTNWKRIVLGAILLASKVWDDQAVWNVDYCQILKDITVEDMNEMERHFLELLQFNINVPASVYAKYYFDLRSLADDNNLNFLFAPLSKERAQNLEAISRLCEDKDLCRAAMRRSFSADNFIGIQRSKAILS [CCNYL1]	1 (yes)
ARHGAP35	0 (no)
MPGPAAGSRARVYAEVNSLRSREYWDYEAHVPSWGNQDDYQLVRKLGRGKYSEVFEAINITNNERVVVKILKPVKKKKIKREVKILENLRGGTNIIKLIDTVKDPVSKTPALVFEYINNTDFKQLYQILTDFDIRFYMYELLKALDYCHSKGIMHRDVKPHNVMIDHQQKKLRLIDWGLAEFYHPAQEYNVRVASRYFKGPELLVDYQMYDYSLDMWSLGCMLASMIFRREPFFHGQDNYDQLVRIAKVLGTEELYGYLKKYHIDLDPHFNDILGQHSRKRWENFIHSENRHLVSPEALDLLDKLLRYDHQQRLTAKEAMEHPYFYPVVKEQSQPCADNAVLSSGLTAAR [CSNK2A2]	1 (yes)
MSSFSESALEKKLSELSNSQQSVQTLSLWLIHHRKHAGPIVSVWHRELRKAKSNRKLTFLYLANDVIQNSKRKGPEFTREFESVLVDAFSHVAREADEGCKKPLERLLNIWQERSVYGGEFIQQLKLSMEDSKSPPPKATEEKKSLKRTFQQIQEEEDDDYPGSYSPQDPSAGPLLTEELIKALQDLENAASGDATVRQKIASLPQEVQDVSLLEKITDKEAAERLSKTVDEACLLLAEYNGRLAAELEDRRQLARMLVEYTQNQKDVLSEKEKKLEEYKQKLARVTQVRKELKSHIQSLPDLSLLPNVTGGLAPLPSAGDLFSTD [RPRD1B]	1 (yes)

Then there is this substance:
Is reported solubility change mitosis (log2) greater than or equal to -0.1 here: MKFLLDILLLLPLLIVCSLESFVKLFIPKRRKSVTGEIVLITGAGHGIGRLTAYEFAKLKSKLVLWDINKHGLEETAAKCKGLGAKVHTFVVDCSNREDIYSSAKKVKAEIGDVSILVNNAGVVYTSDLFATQDPQIEKTFEVNVLAHFWTTKAFLPAMTKNNHGHIVTVASAAGHVSVPFLLAYCSSKFAAVGFHKTLTDELAALQITGVKTTCLCPNFVNTGFIKNPSTSLGPTLEPEEVVNRLMHGILTEQKMIFIPSSIAFLTTLERILPERFLAVLKRKISVKFDAVIGYKMKAQ [HSD17B11]
0 (no)
